Origin of values: patent US20230116972A1

Target: human CD38 (Homo sapiens)
Sequence (P28907 whole entry): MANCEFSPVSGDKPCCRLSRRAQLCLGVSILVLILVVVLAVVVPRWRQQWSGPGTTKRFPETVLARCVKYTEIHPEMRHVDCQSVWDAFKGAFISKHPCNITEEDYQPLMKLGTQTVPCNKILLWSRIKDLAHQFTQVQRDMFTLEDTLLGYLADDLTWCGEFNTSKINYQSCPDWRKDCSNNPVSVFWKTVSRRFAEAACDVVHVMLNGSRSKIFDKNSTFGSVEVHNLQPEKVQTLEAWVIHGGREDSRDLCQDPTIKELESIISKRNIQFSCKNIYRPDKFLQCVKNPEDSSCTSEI
Test: human recombinant CD38 enzyme assay (hydrolysis of NAD+)
Conditions: human recombinant CD38, 0.4 nM enzyme, 62.5 μM NAD+; read-out: hCD38 BioChem IC50
pIC50: −log10 of the molar value.
# binarize pIC50: threshold 7 inclusive, high side Met, low side Not met

O=C(N[C@H]1CC[C@@H](O)CC1)c1cccc(-n2ccnc2)n1 [Compound 31]	Not met
Cn1cncc1-c1ccnc(C(=O)N[C@H]2C[C@@H](c3ccnc(C(F)(F)F)c3)C2)n1 [Compound 266]	Not met
CO[C@H]1CC[C@H](NC(=O)c2ccnc(-c3cncs3)n2)CC1 [Compound 113]	Not met
COCCOc1cc(C(=O)Nc2ccc(C(F)(F)F)nc2)nc(-n2ccnc2)c1 [Compound 245]	Met
Cn1cncc1-c1nc(C(=O)Nc2ccc(OC(F)F)nc2)cc(C2CCC(F)(F)CC2)n1 [Compound 342]	Met
Cc1ncc(-c2cncn2C)nc1C(=O)Nc1ccc(C(F)(F)F)nc1 [Compound 296]	Met

With those in mind, consider the next compound.
Data request: Is it the case that Cn1cncc1-c1ccnc(C(=O)Nc2ccc(C(C)(C)O)cc2)n1 [Compound 358] has pIC50 reaching or exceeding 7?
Data returned: Met

---

Target: CYP3A4 (Homo sapiens)
Construct: from tissue; host or cells: human liver microsomes (pooled in the time-dependent assay)
Test: time dependent inhibition of CYP450 in pooled human microsomes
Format: in vitro ADME
Conditions: pre-incubation 0 min; read-out: CYP3A4-M IC50
Experimental endpoint: IC50

Data request: I'd like to know its IC50. The compound in question is CO[C@H]1CC[C@H](NC(=O)c2nccc(-c3cncn3C)n2)CC1 [Compound 148]
Data returned: > 30 µM

---

Biological target: CYP2B6 (Homo sapiens)
Construct: from tissue; host or cells: human liver microsomes (pooled in the time-dependent assay)
Assay: time dependent inhibition of CYP450 in pooled human microsomes
Format: in vitro ADME
Settings: 0 min pre-incubation; pooled human microsomes; read-out: IC50 CYP2B6 (reversible inhibition)
Experimental endpoint: pIC50
Numbers only, as −log10 of the molar value.

Data request: I'd like to know its pIC50. The compound in question is CO[C@H]1CC[C@H](NC(=O)c2nccc(-c3cncn3C)n2)CC1
Data returned: 4.58

---

Exercise: state measured pIC50 for each of the compounds provided.
Molecular target: human CD38 (Homo sapiens)
Experiment: human recombinant CD38 enzyme assay (hydrolysis of NAD+)
Settings: human recombinant CD38, 0.4 nM enzyme, 62.5 μM NAD+; read-out: hCD38 BioChem IC50
Experimental: Compounds described herein were assayed for their ability to inhibit the hydrolysis of NAD+ by the protein CD38. […] Dose responses were measured using an assay to detect the hydrolysis of NAD+. […] Subsequent detection of remaining NAD+ was determined by first converting NAD+ to NADH using alcohol dehydrogenase, then using the resulting NADH to reduce resazurine to the fluorescent product resorufin. […] The plates were read for fluorescence (Excitation/Emission=540 nm/590 nm) using an EnVision plate reader. […]
One number for each entry, as −log10 of the molar value.

O=C(N[C@H]1CC[C@H](CO)CC1)c1nccc(-n2ccnc2)n1	7.06
Cc1cnc(-c2cncn2C)nc1C(=O)N[C@H]1CC[C@H](OC(F)F)CC1	7.54
Cn1cncc1-c1cncc(C(=O)N[C@H]2CC[C@H](C(F)F)CC2)n1	7.66

Please state, for each entry, its recorded pIC50.
1. CCO[C@H]1CC[C@H](NC(=O)c2nccc(-n3ccnc3)n2)CC1
2. Cc1cc(C(=O)N[C@H]2CC[C@H](C(F)F)CC2)nc(-c2cncn2C)n1
3. CC(C)(O)c1cc(C(=O)Nc2ccc(C(F)(F)F)nc2)nc(-n2ccnc2)n1
4. CO[C@H]1CC[C@H](NC(=O)c2cc(C)cc(-n3ccnc3)n2)CC1
5. COCCO[C@H]1CC[C@H](NC(=O)c2nc(OC)cc(-c3cncn3C)n2)CC1
6. Cc1ccc(C(=O)Nc2cccnc2)nc1-n1ccnc1

Data returned:
[7.15, 8.00, 6.48, 7.64, 7.14, 6.30]

Please state, for each entry, its recorded pIC50.
1. COCCOc1cc(C(=O)Nc2ccc(C(F)(F)F)nc2)nc(-c2cncn2C)n1
2. Cn1cncc1-c1nc(C(=O)N[C@H]2CC[C@H](OC(F)(F)F)CC2)cc(C2CCOCC2)n1
3. Cn1cncc1-c1ccnc(C(=O)Nc2ccc(C(C)(C)O)nc2)n1

Data returned:
1. 8.60
2. 7.91
3. 7.85

Please state, for each entry, its recorded pIC50.
1. Cn1cncc1-c1nc(C(=O)NC2CCC(F)(F)CC2)cc(C2CCC2)n1
2. O=C(N[C@H]1CC[C@H](CO)CC1)c1cc(C2CC2)nc(-c2cncs2)n1
3. COc1cc(C(=O)Nc2ccc(C(F)F)nc2)nc(-c2cncs2)n1
4. COC(=O)[C@H]1CC[C@H](NC(=O)c2ccnc(-n3ccnc3)n2)CC1
5. O=C(N[C@H]1CC[C@H](CO)CC1)c1ccnc(-c2cncs2)n1
6. CC(=O)N1CCC(NC(=O)c2cccc(-n3ccnc3)n2)CC1
7. Cn1cncc1-c1nc(C(=O)N[C@H]2CC[C@H](C(F)F)CC2)cc(C2CCOCC2)n1

Data returned:
7.96
6.12
7.18
7.66
6.13
7.01
8.03

Please state, for each entry, its recorded pIC50.
1. CO[C@H]1CC[C@H](NC(=O)c2cc(C(F)(F)F)cc(-n3ccnc3)n2)CC1
2. Cn1cncc1-c1nc(C(=O)N[C@H]2CC[C@H](OCC(F)(F)F)CC2)cc(C2CCOCC2)n1
3. O=C(Nc1ccc(C(F)F)nc1)c1cc(C2CC2)nc(-c2cncs2)n1
4. O=C(Nc1cccnc1)c1cc(-n2ccnc2)ccn1
5. CO[C@H]1CC[C@H](NC(=O)c2nc(C(F)F)cc(-n3ccnc3)n2)CC1
6. COc1cc(C(=O)Nc2ccc(C(F)F)nc2)nc(-n2ccnc2)c1
7. NC(=O)c1cn(-c2cccc(C(=O)Nc3ccc(C(F)(F)F)nc3)n2)cn1

Data returned:
[7.21, 7.98, 6.97, 6.61, 6.96, 8.51, 6.04]

---

Target: endogenous CD38 in HL60 cells (Homo sapiens)
Construct: endogenous in cells
Sequence (P28907 whole entry): as above
Assay: cellular CD38 assay in HL60 cells (cellular NAD levels)
Conditions: all-trans retinoic acid, 24 hours, read-out: hCD38 HL60 ATRA NAD Cell Diaphorase IC50
Exercise: state measured pIC50 for each of the compounds provided.
Numbers only, as −log10 of the molar value.

Below: 10 compounds and their reported pIC50.
CO[C@H]1CC[C@H](NC(=O)c2cc([C@H]3CC[C@H](OC)CC3)nc(-c3cncn3C)n2)CC1	5.83
COc1cc(C(=O)N[C@H]2CC[C@H](OC)CC2)nc(-c2cncs2)n1	4.99
O=C(NC1CCC(F)(F)CC1)c1cccc(-n2ccnc2)n1	5.81
O=C(N[C@H]1C[C@H](Oc2ccccc2)C1)c1nccc(-n2ccnc2)n1	4.97
O=C(N[C@H]1CC[C@H](C(F)F)CC1)c1ccnc(-n2ccnc2)n1	5.88
CC(=O)N1CCC(NC(=O)c2cccc(-n3ccnc3)n2)CC1	5.24
Cn1cncc1-c1nccc(C(=O)Nc2ccc(C(F)(F)F)nc2)n1	6.32
CO[C@H]1CC[C@H](NC(=O)c2ccnc(-c3cncn3C)n2)CC1	5.95
COCCO[C@H]1CC[C@H](NC(=O)c2cc(C(F)(F)F)nc(-c3cncn3C)n2)CC1	5.53
Cn1cncc1-c1nccc(C(=O)N[C@H]2CC[C@H](C(F)(F)F)CC2)n1	5.56

Please state, for each entry, its recorded pIC50.
1. Cn1cncc1-c1nc(C(=O)Nc2ccc(C(F)(F)F)nc2)cc(C2(C)COC2)n1
2. Cn1cncc1-c1ccnc(C(=O)N[C@H]2C[C@@H](c3ccc(C(F)(F)F)nc3)C2)n1

Data returned:
[6.03, 4.97]

Please state, for each entry, its recorded pIC50.
1. O=C(Nc1ccccc1)c1cc(-n2ccnc2)ccn1
2. CCO[C@H]1C[C@H](NC(=O)c2nccc(-c3cncn3C)n2)C1
3. COc1cc(C(=O)Nc2ccc(C(F)F)nc2)nc(-c2cncn2C)c1
4. O=C(N[C@H]1CC[C@H](O)CC1)c1cc(C(F)(F)F)cc(-n2ccnc2)n1
5. O=C(Nc1cccnc1)c1ccnc(-n2ccnc2)n1
6. O=C(Nc1ccc(F)cc1F)c1cccc(-n2ccnc2)n1

Data returned:
1. 5.11
2. 5.39
3. 5.97
4. 5.17
5. 6.47
6. 5.78

---

Exercise: state measured activity at 10 µM for each of the compounds provided.
Target: CYP2C9 (Homo sapiens, UniProt P11712)
Construct: from tissue; host or cells: human liver microsomes (pooled in the time-dependent assay)
Sequence (P11712 whole entry): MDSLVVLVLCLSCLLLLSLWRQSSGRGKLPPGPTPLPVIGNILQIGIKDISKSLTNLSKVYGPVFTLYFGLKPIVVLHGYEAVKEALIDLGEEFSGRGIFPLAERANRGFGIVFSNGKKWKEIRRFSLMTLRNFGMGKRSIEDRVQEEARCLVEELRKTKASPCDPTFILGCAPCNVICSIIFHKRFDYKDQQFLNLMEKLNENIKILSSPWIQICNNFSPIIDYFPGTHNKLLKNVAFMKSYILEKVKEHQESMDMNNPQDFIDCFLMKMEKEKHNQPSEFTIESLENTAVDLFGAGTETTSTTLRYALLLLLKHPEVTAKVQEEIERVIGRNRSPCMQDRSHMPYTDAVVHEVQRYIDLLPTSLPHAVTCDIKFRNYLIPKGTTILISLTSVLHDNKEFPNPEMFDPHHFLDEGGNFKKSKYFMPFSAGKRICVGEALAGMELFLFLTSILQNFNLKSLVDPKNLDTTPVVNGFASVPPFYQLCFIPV
Test: direct inhibition of CYP450 in human liver microsomes
Assay type: in vitro ADME
Settings: 10 uM, % of non-inhibited control, read-out: CYP2C9 T0 % activity
Give bare numbers, in %.

Please state, for each entry, its recorded activity at 10 µM.
1. CO[C@H]1CC[C@H](NC(=O)c2cc(C3CCC(F)(F)CC3)nc(-c3cncn3C)n2)CC1 [Compound 289]
2. Cn1cncc1-c1ccnc(C(=O)Nc2ccc(C(C)(C)O)nc2)n1 [Compound 250]
3. CO[C@H]1CC[C@H](NC(=O)c2cc(C3(C)COC3)nc(-c3cncn3C)n2)CC1 [Compound 295]
4. CO[C@H]1CC[C@H](NC(=O)c2cc(C3CCOCC3)nc(-c3cncn3C)n2)CC1 [Compound 199]
5. CC(C)(O)c1ccc(NC(=O)c2nccc(-n3ccnc3)n2)cn1 [Compound 249]
6. Cn1cncc1-c1ccnc(C(=O)N[C@H]2CC[C@H](O)CC2)n1 [Compound 256]

Data returned:
81
94
85
96
103
94

Please state, for each entry, its recorded activity at 10 µM.
1. [2H]c1nc([2H])n(-c2nc(C)cc(C(=O)N[C@H]3CC[C@H](OCCOC)CC3)n2)c1[2H] [Comparator Compound A, reference compound]
2. CO[C@H]1CC[C@H](NC(=O)c2nccc(-n3ccnc3)n2)CC1 [Compound 145]

Data returned:
1: 64; 2: 99
